Measured cell viability by item
- System: DLD1
- ASSAY PROCEDURE: cell viability (CellTiter-Glo) relative to plate median (fraction of plate median); higher = more viable cells
- STATED CONDITIONS: 10 µM; treatment time 24 h; reporter: TCF4/Wnt
Counter-ions that a name gives are not always drawn.
ENDPOINT: cell viability

                                    compound  meas_value
 0  COc1cc2ncnc(Nc3ccc(F)c(Cl)c3)c2cc1OCCCN1CCOCC1       0.968
 1  CC(C)(C)c1cc(NC(=O)Nc2ccc(-c3cn4c(n3)sc3cc(OCCN5CCOCC5)ccc34)cc2)no1       0.989
 2  C[S+]([O-])c1ccc(-c2nc(-c3ccc(F)cc3)c(-c3ccncc3)[nH]2)cc1 (centres undefined)        1.02
 3  Cc1ccc(C(=O)Nc2ccc(CN3CCN(C)CC3)c(C(F)(F)F)c2)cc1C#Cc1cnc2cccnn12         0.8
 4  Cc1cc(C)c(/C=C2\C(=O)Nc3ccccc32)[nH]1 [Semaxanib (SU5416)]        1.02
 5  CNC(=O)c1ccccc1Nc1nc(Nc2ccc(N3CCOCC3)cc2OC)ncc1Cl       0.933
 6  CCN1CCN(c2ccc(Nc3cc(N(C)C(=O)Nc4c(Cl)c(OC)cc(OC)c4Cl)ncn3)cc2)CC1        1.06
 7  COc1ccc2c(Oc3ccc(NC(=O)c4c(C)n(CC(C)(C)O)n(-c5ccccc5)c4=O)nc3)ccnc2c1        1.01
 8  COc1cc2c(Oc3ccc(NC(=O)C4(C(=O)Nc5ccc(F)cc5)CC4)cc3F)ccnc2cc1OCCCN1CCOCC1       0.875
 9  Cc1csc(-c2nnc(Nc3ccc(Oc4ncccc4-c4ccnc(N)n4)cc3)c3ccccc23)c1        1.03
10  O=C(NCCCNc1nc(Nc2cccc(NC(=O)N3CCCC3)c2)ncc1I)c1cccs1        0.97
11  N#Cc1c(O)c2c(-c3ccc(-c4ccccc4O)cc3)csc2[nH]c1=O        1.13
12   O=c1sn(-c2cccc3ccccc23)c(=O)n1Cc1ccccc1       0.948
13  COc1cc2ncnc(Nc3ccc(F)c(Cl)c3)c2cc1NC(=O)/C=C/CN1CCCCC1           1
14  O=C(Nc1cc(C(F)(F)F)cc(C(F)(F)F)c1)c1cc(Cl)ccc1O       0.618
15  CS(=O)(=O)CCNCc1ccc(-c2ccc3ncnc(Nc4ccc(OCc5cccc(F)c5)c(Cl)c4)c3c2)o1 [Lapatinib Ditosylate (Tykerb)]        1.02
16  COc1cc(Nc2c(C#N)cnc3cc(OCCCN4CCN(C)CC4)c(OC)cc23)c(Cl)cc1Cl [Bosutinib (SKI-606)]       0.902
17        NC(=O)Nc1sc(-c2ccc(F)cc2)cc1C(N)=O        0.93
18  O=C(Cc1ccc(-c2ccc(OCCN3CCOCC3)cc2)cn1)NCc1ccccc1           1
19  C[C@]1(O)C[C@@H](c2nc(-c3ccc4ccc(-c5ccccc5)nc4c3)c3c(N)nccn32)C1       0.856
20  C[C@H](NC(=O)/C(C#N)=C/c1cccc(Br)n1)c1ccccc1       0.529
21  C[C@@H](Oc1cc(-n2cnc3ccc(CN4CCN(C)CC4)cc32)sc1C(N)=O)c1ccccc1C(F)(F)F       0.934
22  N=C(N)NC(=N)NCCc1ccccc1 [Phenformin hydrochloride]        1.06
23  COc1cc2nccc(Oc3ccc(NC(=O)C4(C(=O)Nc5ccc(F)cc5)CC4)cc3)c2cc1OC [XL-184 free base (Cabozantinib)]        1.02
